biological target: Beta-1 adrenergic receptor (Homo sapiens, UniProt P08588)
Sequence (P08588 whole entry): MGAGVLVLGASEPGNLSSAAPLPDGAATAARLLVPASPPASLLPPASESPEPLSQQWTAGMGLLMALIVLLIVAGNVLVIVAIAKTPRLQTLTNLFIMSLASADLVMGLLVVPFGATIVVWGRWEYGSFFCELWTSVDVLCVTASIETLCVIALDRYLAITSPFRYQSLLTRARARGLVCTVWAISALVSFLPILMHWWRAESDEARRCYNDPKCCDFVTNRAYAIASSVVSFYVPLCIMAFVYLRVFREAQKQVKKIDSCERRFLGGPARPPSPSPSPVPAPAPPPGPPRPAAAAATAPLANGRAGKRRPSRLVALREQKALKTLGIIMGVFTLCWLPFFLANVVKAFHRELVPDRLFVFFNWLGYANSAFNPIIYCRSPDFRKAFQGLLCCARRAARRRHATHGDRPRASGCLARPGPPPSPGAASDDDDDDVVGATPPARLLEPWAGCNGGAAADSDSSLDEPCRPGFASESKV
Just a reminder that ties go to -1: only Ki strictly below 30 µM counts as 1.

| compound | category |
| --- | --- |
| OCc1cc(C(O)CNCCc2ccc(Nc3ccc(-c4ccccc4)cc3)cc2)ccc1O (racemic) | 1 |
| CCOc1ccc(Nc2ccc(CCNCC(O)c3ccc(O)c(CO)c3)cc2)cc1 (racemic) | -1 |
| OCc1cc(C(O)CNCCc2ccc(Nc3cccc(-c4ccccc4)c3)cc2)ccc1O (racemic) | 1 |
| OCc1cc(C(O)CNCCc2ccc(N3CCC(Cc4ccccc4)CC3)cc2)ccc1O (racemic) | -1 |
| OCc1cc(C(O)CNCCc2ccc(Nc3ccc(Oc4ccccc4)cc3)cc2)ccc1O (racemic) | 1 |
| OCc1cc(C(O)CNCCc2ccc(Nc3ccc(F)cc3)cc2)ccc1O (racemic) | 1 |
| CSc1ccc(Nc2ccc(CCNCC(O)c3ccc(O)c(CO)c3)cc2)cc1 (racemic) | 1 |
| O=C(c1ccccc1)C1CCN(c2ccc(CCNCC(O)c3ccc(O)c(CO)c3)cc2)CC1 (racemic) | -1 |
| OCc1cc(C(O)CNCCc2ccc(Nc3cccc4ccccc34)cc2)ccc1O (racemic) | -1 |

###

Target or system Beta-2 adrenergic receptor (Homo sapiens); recorded quantity Ki.

| compound | Ki |
| --- | --- |
| OCc1cc(C(O)CNCCc2ccc(NCc3ccc(Cl)c(Cl)c3)cc2)ccc1O (racemic) | > 10 µM |
| COc1ccc(CN2CCN(c3ccc(CCNCC(O)c4ccc(O)c(CO)c4)cc3)CC2)cc1 (racemic) | > 10 µM |
| OCc1cc(C(O)CNCCc2ccc(NCc3ccc4ccccc4c3)cc2)ccc1O (racemic) | > 10 µM |
| O=C(Cc1ccccc1)NC1CCN(c2ccc(CCNCC(O)c3ccc(O)c(CO)c3)cc2)CC1 (racemic) | > 10 µM |

###

Quick reference for Ratio Ki among some compounds
species: Homo sapiens; test: Selectivity ratio Ki for beta1 receptor (unknown origin) to Ki for beta2 receptor (unknown origin)
assay-readout: Ratio Ki

| compound | assay-readout | recorded-number |
| --- | --- | --- |
| OCc1cc(C(O)CNCCc2ccc(Nc3ccc(Oc4ccccc4)cc3)cc2)ccc1O (racemic) | Ratio Ki | 16 |
| OCc1cc(C(O)CNCCc2ccc(Nc3ccc4c(c3)CCC4)cc2)ccc1O (racemic) | Ratio Ki | 31 |
| CSc1ccc(Nc2ccc(CCNCC(O)c3ccc(O)c(CO)c3)cc2)cc1 (racemic) | Ratio Ki | 81 |
| CC(C)Oc1ccc(Nc2ccc(CCNCC(O)c3ccc(O)c(CO)c3)cc2)cc1 (racemic) | Ratio Ki | 158 |
| COc1cccc(Nc2ccc(CCNCC(O)c3ccc(O)c(CO)c3)cc2)c1 (racemic) | Ratio Ki | 17 |

###

target: Beta-2 adrenergic receptor (Homo sapiens, UniProt P07550); assay: Agonist activity at human recombinant beta2 receptor assessed as cAMP accumulation by radioimmunoassay and cell based assay; type: functional
Sequence (P07550 whole entry): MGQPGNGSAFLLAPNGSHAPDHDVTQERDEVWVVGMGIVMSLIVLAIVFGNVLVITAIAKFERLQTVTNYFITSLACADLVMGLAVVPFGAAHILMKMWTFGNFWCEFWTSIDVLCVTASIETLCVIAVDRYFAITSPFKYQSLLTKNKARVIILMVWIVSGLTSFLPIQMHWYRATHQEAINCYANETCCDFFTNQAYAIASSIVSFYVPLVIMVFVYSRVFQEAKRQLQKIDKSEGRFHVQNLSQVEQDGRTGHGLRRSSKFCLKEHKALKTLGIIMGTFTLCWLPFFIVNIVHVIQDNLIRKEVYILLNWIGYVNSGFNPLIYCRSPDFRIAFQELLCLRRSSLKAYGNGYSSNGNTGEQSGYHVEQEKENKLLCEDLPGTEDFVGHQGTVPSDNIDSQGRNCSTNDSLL
pEC50: −log10 of the molar value.
Class membership depends on pEC50 alone; the intervals are LOW = under 6, MEDIUM = from 6 up to 9, HIGH = 9 and over

| compound | target-of-assay | category |
| --- | --- | --- |
| CSc1ccc(Nc2ccc(CCNCC(O)c3ccc(O)c(CO)c3)cc2)cc1 (racemic) | Beta-2 adrenergic receptor (Homo sapiens, UniProt P07550) | MEDIUM |
| OCc1cc(C(O)CNCCc2ccc(N3CCN(c4ccccc4)CC3)cc2)ccc1O (racemic) | Beta-2 adrenergic receptor (Homo sapiens, UniProt P07550) | MEDIUM |
| OCc1cc(C(O)CNCCc2ccc(N3CCC(Cc4ccccc4)CC3)cc2)ccc1O (racemic) | Beta-2 adrenergic receptor (Homo sapiens, UniProt P07550) | MEDIUM |
| OCc1cc(C(O)CNCCc2ccc(NCc3ccc(Cl)c(Cl)c3)cc2)ccc1O (racemic) | Beta-2 adrenergic receptor (Homo sapiens, UniProt P07550) | LOW |
| COc1ccc(Nc2ccc(CCNC[C@H](O)c3ccc(O)c(CO)c3)cc2)cc1-c1ccccc1 | Beta-2 adrenergic receptor (Homo sapiens, UniProt P07550) | HIGH |
| COc1cccc(Nc2ccc(CCNCC(O)c3ccc(O)c(CO)c3)cc2)c1 (racemic) | Beta-2 adrenergic receptor (Homo sapiens, UniProt P07550) | MEDIUM |
| OCc1cc(C(O)CNCCc2ccc(Nc3cccc4ccccc34)cc2)ccc1O (racemic) | Beta-2 adrenergic receptor (Homo sapiens, UniProt P07550) | MEDIUM |
| COc1ccc(Nc2ccc(CCNCC(O)c3ccc(O)c(CO)c3)cc2)cc1 (racemic) | Beta-2 adrenergic receptor (Homo sapiens, UniProt P07550) | MEDIUM |
| OCc1cc(C(O)CNCCc2ccc(Nc3cccc(-c4ccccc4)c3)cc2)ccc1O (racemic) | Beta-2 adrenergic receptor (Homo sapiens, UniProt P07550) | MEDIUM |
| CC(=O)N1CCN(c2ccc(CCNCC(O)c3ccc(O)c(CO)c3)cc2)CC1 (racemic) | Beta-2 adrenergic receptor (Homo sapiens, UniProt P07550) | LOW |
| COc1ccc(Nc2ccc(CCNC[C@H](O)c3ccc(O)c(NC=O)c3)cc2)cc1-c1ccccc1 | Beta-2 adrenergic receptor (Homo sapiens, UniProt P07550) | HIGH |
| CC(C)Oc1ccc(Nc2ccc(CCNCC(O)c3ccc(O)c(CO)c3)cc2)cc1 (racemic) | Beta-2 adrenergic receptor (Homo sapiens, UniProt P07550) | MEDIUM |
| OCc1cc(C(O)CNCCc2ccc(N3CCC(c4ccccc4)CC3)cc2)ccc1O (racemic) | Beta-2 adrenergic receptor (Homo sapiens, UniProt P07550) | MEDIUM |
